target: human rec ACSS2 (Homo sapiens); construct: myc (C); assay: Biochemical activity ACSS2 assay (AMP-Glo); conditions: human recombinant ACSS2, AMP-Glo, 180 min at 37° C.
pIC50: −log10 of the molar value.
Quantity name: pIC50

Solved cases below.
| Compound | Value observed |
| --- | --- |
| CCc1c(C(O)(c2ccccc2)c2ccccc2)nn2cc(OC)c(C(=O)Nc3cnn(CC)c3)cc12 | 7.00 to 8.00 |
| CCn1c(C(O)(c2ccccc2)c2ccccc2)nc2nc(OC)c(C(=O)Nc3ncn(CCOC)n3)cc21 | 7.00 to 8.00 |
| CCc1c(C(O)(c2ccccc2)c2nccs2)nc2cc(OC)c(C(=O)Nc3ncn(CC)n3)cn12 (racemic) | 7.00 to 8.00 |

Please find the next compound below.
Problem: Param item = `CCc1nnc(NC(=O)c2cc3c(nc2OC)nc(C(O)(c2ccccc2)c2ccccc2)n3CC)o1` ; retrieve measured pIC50.
Result: 9.00 to 11.00

====

target: human rec ACSS2 (Homo sapiens, UniProt Q9NR19); construct: myc (C); assay: Biochemical activity ACSS2 assay (AMP-Glo); conditions: human recombinant ACSS2, AMP-Glo, 180 min at 37° C.
Quantity name: IC50

| Compound | Study system | IC50 |
| --- | --- | --- |
| CCn1cnc(NC(=O)c2cnc3nc(C(O)(c4ccccc4)c4ccccc4)n(CC)c3c2)n1 | human rec ACSS2 (Homo sapiens, UniProt Q9NR19) | 1 to 10 nM |
| CCn1cc(NC(=O)c2cc3c(nc2F)nc(C(O)(c2ccccc2F)c2ccccc2F)n3CC)cn1 | human rec ACSS2 (Homo sapiens, UniProt Q9NR19) | 1 to 10 nM |
| CCn1cnc(NC(=O)c2cc3c(nc2C)nc(C(O)(c2ccccc2F)c2ccc(OC(F)F)cc2F)n3CC)n1 (racemic) [Compound 97] | human rec ACSS2 (Homo sapiens, UniProt Q9NR19) | 1 to 10 nM |
| CCn1cnc(NC(=O)c2cc3c(nc2Cl)nc(C(O)(c2ccccc2)c2ccccc2)n3CC)n1 | human rec ACSS2 (Homo sapiens, UniProt Q9NR19) | 1 to 10 nM |
| CCc1c(C(O)(c2ccccc2)c2ccccc2)nc2cc(OC)c(C(=O)Nc3cnn(CC)c3)cn12 | human rec ACSS2 (Homo sapiens, UniProt Q9NR19) | 1 to 10 nM |
| CCc1c(C(O)(c2ccccc2F)c2ccccc2F)nc2cc(OC)c(C(=O)Nc3ncn(CC)n3)cn12 | human rec ACSS2 (Homo sapiens, UniProt Q9NR19) | 1 to 10 nM |
| CCn1cc(NC(=O)c2cc3c(nc2Cl)nc(C(O)(c2ccccc2)c2ccccc2)n3CC)cn1 | human rec ACSS2 (Homo sapiens, UniProt Q9NR19) | 1 to 10 nM |
| CCc1c(C(O)(c2ccccc2)c2ccccc2)nc2cc(Cl)c(C(=O)Nc3cnn(CC)c3)cn12 | human rec ACSS2 (Homo sapiens, UniProt Q9NR19) | 10 to 100 nM |

Problem: Query: IC50; subject: CCn1cnc(NC(=O)c2cc3c(nc2OC)nc(C(O)(c2ccccc2)c2ccccn2)n3CC)n1 (single isomer, unassigned) [Compound 54]
Result: 10 to 100 nM

Problem: Reported IC50, compound CCn1c(C(O)(c2ccccc2)c2ccccn2)nc2nc(OC)c(C(=O)Nc3ncn(CCO)n3)cc21 (racemic) : ____
Result: 10 to 100 nM

Problem: Given the compound `CCn1cnc(NC(=O)c2cc3c(nc2OC)nc(C(O)(c2ccccc2)c2ccccc2)n3CCOC)n1` , what is its reported IC50?
Result: 1 to 10 nM

Problem: Query: IC50; subject: CCn1cnc(NC(=O)c2cc3c(nc2OC)nc(C(O)(c2ccccc2)c2cccnn2)n3CC)n1 (racemic)
Result: 1 to 10 nM

====

target: ACSS2 (Homo sapiens); construct: endogenous fatty acid synthesis activity in the human HCT-15 cancer cell line; endogenous in cells; host or cells: HCT-15; test: Cellular assay of 14C acetate incorporation into fatty acids (IC50 ACSS2 cellular lipids); type: cell-based; settings: HCT-15 cells
Sequence (Q9NR19 whole entry): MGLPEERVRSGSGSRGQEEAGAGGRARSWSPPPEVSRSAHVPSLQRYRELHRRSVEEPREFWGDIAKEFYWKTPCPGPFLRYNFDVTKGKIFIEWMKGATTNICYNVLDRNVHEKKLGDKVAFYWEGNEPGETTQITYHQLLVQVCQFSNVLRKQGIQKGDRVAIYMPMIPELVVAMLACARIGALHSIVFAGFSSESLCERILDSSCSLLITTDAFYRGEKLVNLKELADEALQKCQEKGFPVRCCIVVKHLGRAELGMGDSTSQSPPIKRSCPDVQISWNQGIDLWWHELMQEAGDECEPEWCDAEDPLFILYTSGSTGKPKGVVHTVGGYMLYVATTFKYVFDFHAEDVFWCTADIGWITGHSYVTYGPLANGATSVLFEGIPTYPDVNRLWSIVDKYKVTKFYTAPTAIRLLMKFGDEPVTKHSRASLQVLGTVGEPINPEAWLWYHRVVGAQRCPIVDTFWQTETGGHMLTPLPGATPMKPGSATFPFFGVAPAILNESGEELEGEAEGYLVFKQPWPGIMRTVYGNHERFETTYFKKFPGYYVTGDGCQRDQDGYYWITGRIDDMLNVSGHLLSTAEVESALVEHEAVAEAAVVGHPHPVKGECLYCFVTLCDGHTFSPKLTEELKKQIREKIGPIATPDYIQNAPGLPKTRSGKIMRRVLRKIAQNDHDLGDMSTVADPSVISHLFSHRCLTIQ
Attribute: IC50

Solved cases (3 shown):
| Compound | Study system | Quantity name | Value observed |
| --- | --- | --- | --- |
| CCc1c(C(O)(c2ccccc2F)c2ccccc2F)nn2ccc(C(=O)Nc3ncn(CC)n3)cc12 [Compound 5] | ACSS2 (Homo sapiens) | IC50 | 0.01 to 1 nM |
| CCn1cnc(NC(=O)c2cc3c(nc2OC)nc(C(O)(c2ccccc2)c2ccccn2)n3CC)n1 (racemic) [Compound 69] | ACSS2 (Homo sapiens) | IC50 | 1 to 10 nM |
| CCn1cc(NC(=O)c2cc3c(nc2OC)nc(C(O)(c2ccccc2F)c2ccccc2F)n3CC)cn1 [Compound 104] | ACSS2 (Homo sapiens) | IC50 | 1 to 10 nM |

API: the following record is the query input.
Problem: Any idea what its IC50 is? The compound is CCc1c(C(O)(c2ccccc2)c2ccccc2)nn2cc(Cl)c(C(=O)Nc3cnn(CC)c3)cc12 [Compound 6]
Result: 1 to 10 nM

====

target: human rec ACSS2 (Homo sapiens); construct: myc (C); assay: Biochemical activity ACSS2 assay (AMP-Glo); conditions: human recombinant ACSS2, AMP-Glo, 180 min at 37° C.
pIC50: −log10 of the molar value.
compounds and their reported pIC50

| Compound | pIC50 |
| --- | --- |
| CCn1cnc(NC(=O)c2cc3c(nc2OC)nc(C(O)(c2ccc(OC(F)F)cc2)c2ccccc2F)n3CC)n1 (single isomer, unassigned) [Compound 75] | 9.00 to 11.00 |
| CCn1cnc(NC(=O)c2cnc3nc(C(O)(c4ccccc4F)c4ccccc4F)n(CC)c3c2)n1 | 8.00 to 9.00 |
| CCc1c(C(O)(c2ccccc2)c2ccccn2)nc2cc(OC)c(C(=O)Nc3ncn(CC)n3)cn12 (single isomer, unassigned) [Compound 17] | 7.00 to 8.00 |
| CCn1cc(NC(=O)c2cc3c(nc2OC)nc(C(O)(c2ccc(OC(F)F)cc2)c2ccccc2F)n3CC)cn1 (racemic) | 7.00 to 8.00 |
| CCc1c(C(O)(c2ccccc2F)c2ccccc2F)nn2ccc(C(=O)Nc3ncn(CC)n3)cc12 | 8.00 to 9.00 |
| CCn1cnc(NC(=O)c2cc3c(nc2OC)nc(C(O)(c2ccccc2)c2ccncn2)n3CC)n1 (racemic) | 7.00 to 8.00 |
| CCn1cc(NC(=O)c2cc3c(nc2OC)nc(C(O)(c2ccccc2)c2ccc(OC(F)F)cc2)n3CC)cn1 (racemic) | 7.00 to 8.00 |
| CCn1c(C(O)(c2ccccc2)c2ccccc2)nc2nc(OC)c(C(=O)Nc3cnn(CCOC)c3)cc21 | 7.00 to 8.00 |
| CCc1cc2nc(C(O)(c3ccccc3)c3ccccc3)c(CC)n2cc1C(=O)Nc1ncn(CC)n1 (racemic) | 7.00 to 8.00 |
| CCn1cc(NC(=O)c2cc3c(nc2Cl)nc(C(O)(c2ccccc2)c2ccc(OC(F)F)cc2F)n3CC)cn1 (racemic) [Compound 81] | 8.00 to 9.00 |

Problem: Item under review: `CCc1c(C(O)(c2ccccc2F)c2ccccc2F)nc2cc(Cl)c(C(=O)Nc3ncn(CC)n3)cn12` . Reported pIC50?
Result: 8.00 to 9.00

Problem: I have this compound here, `CCc1c(C(O)(c2ccccc2)c2ccccc2)nn2ccc(C(=O)Nc3ncn(CC)n3)cc12` , and I need its recorded pIC50.
Result: 8.00 to 9.00

Problem: What value of measured pIC50 is listed for `CCc1coc(NC(=O)c2cc3c(nc2OC)nc(C(O)(c2ccccc2)c2ccccc2)n3CC)n1` ?
Result: 8.00 to 9.00

Problem: What value of measured pIC50 is listed for CCn1cnc(NC(=O)c2cc3c(nc2OC)nc(C(O)(c2ccccn2)c2cccs2)n3CC)n1 (racemic) ?
Result: 7.00 to 8.00

====

Molecular target: ACSS2 (Homo sapiens)
Construct: endogenous fatty acid synthesis activity in the human HCT-15 cancer cell line; endogenous in cells; host or cells: HCT-15
Assay: Cellular assay of 14C acetate incorporation into fatty acids (IC50 ACSS2 cellular lipids)
Format: cell-based
Details: HCT-15 cells
Excerpt: This protocol describes a cellular assay capable to quantify endogenous fatty acid synthesis activity in the human HCT-15 cancer cell line following the incorporation of extracellularly administered radiolabeled ^14C acetate with a scintillation proximity based read out on extracted fatty acids. […]
Quantity name: IC50

| Compound | IC50 |
| --- | --- |
| CCn1cnc(NC(=O)c2cc3c(nc2C)nc(C(O)(c2ccccc2)c2ccccc2)n3CC)n1 [Compound 108] | 10 to 100 nM |
| CCn1cnc(NC(=O)c2cc3c(nc2OC)nc(C(O)(c2ccccc2)c2cccs2)n3CC)n1 (racemic) [Compound 47] | 10 to 100 nM |
| CCc1c(C(O)(c2ccccc2F)c2ccccc2F)nc2cc(OC)c(C(=O)Nc3cnn(CC)c3)cn12 [Compound 30] | 0.01 to 1 nM |
| CCn1c(C(O)(c2ccccc2)c2ccccc2)nc2nc(OC)c(C(=O)Nc3ncn(CCN)n3)cc21 [Compound 46] | 100 to 10000 nM |
| CCn1ccc(NC(=O)c2cc3c(nc2Cl)nc(C(O)(c2ccccc2)c2ccccc2)n3CC)n1 [Compound 83] | 1 to 10 nM |

Problem: Reported IC50, compound CCc1c(C(O)(c2ccccc2)c2ccccc2)nn2ccc(C(=O)Nc3ncn(CC)n3)cc12 [Compound 9] : ____
Result: 0.01 to 1 nM

Problem: Given the entry CCn1c(C(O)(c2ccccc2)c2ccccc2)nc2nc(OC)c(C(=O)Nc3ncn(CCO)n3)cc21 [Compound 73] , report its measured IC50.
Result: 10 to 100 nM

Problem: Dear colleague, I am looking for the recorded IC50 of the following compound: CCc1coc(NC(=O)c2cc3c(nc2OC)nc(C(O)(c2ccccc2)c2ccccc2)n3CC)n1 [Compound 59]
Result: 0.01 to 1 nM

Problem: Entry under review: CCn1cnc(NC(=O)c2cc3c(nc2OC)nc(C(O)(c2ccccc2)c2ccccc2)n3CCO)n1 [Compound 50] . Reported IC50?
Result: 100 to 10000 nM

Problem: # query: IC50 of entry CCc1c(C(O)(c2ccccc2F)c2ccccc2F)nn2cc(OC)c(C(=O)Nc3cnn(CC)c3)cc12 [Compound 4]
Result: 10 to 100 nM

Problem: Given the compound CCn1c(C(O)(c2ccccc2)c2ccccn2)nc2nc(OC)c(C(=O)Nc3ncn(CCOC)n3)cc21 (racemic) [Compound 65] , what is its reported IC50?
Result: 10 to 100 nM
